- Read-out: Alpha-fetoprotein (AFP) gene, AFP (gene 174)
- assay_procedure: LTEA_HepaRG_AFP: Life Technologies and Expression Analysis (LTEA) Assay for Alpha-fetoprotein (AFP) gene using HepaRG (AID 2283472)
- assay_setup: mRNA level, 48 h; actives raise or lower the signal
Active and inactive are the calls of the source. How the source made its calls: active means hit-call score of the fitted dose curve at least 0.9, where 1 is the maximum; inactive means score below 0.9.
Permitted responses: True = active, False = inactive

-- ask Fill in: this test's call for "CCOP(=S)(OCC)SCSC(C)(C)C" is ___
-- reply True

-- ask For "c1cc2ccc3cccc4ccc(c1)c2c34" , what call appears in the results of this test?
-- reply False

-- ask Give the logged outcome of this assay for the following molecule: "CCNc1nc(NC(C)C)nc(SC)n1"
-- reply True

-- ask Give the logged outcome of this assay for the following molecule: "O=C(N[C@H]1CN2CCC1CC2)c1cc2ccoc2cn1"
-- reply False

-- ask Record request — test call for "C[C@]12CCC(=O)C=C1CC[C@@H]1[C@@H]2CC[C@@]2(C)[C@H]1CC[C@]2(C)O"
-- reply True

-- ask What outcome does the record of this test show for "Clc1ccc(C(Cl)(Cl)Cl)cc1" ?
-- reply False

-- ask Which outcome did this test record for the molecule "O=C(NC(=O)c1cc(F)c(F)cc1Cl)Nc1cc(F)ccc1N1CCC(C(=O)O)CC1" ?
-- reply False

-- ask Called result for "CCCCCCCCOC(=O)c1ccccc1C(=O)OCCCCCCCC"
-- reply False

-- ask Dear colleague, could you share the recorded outcome for "O=S(=O)(O)C(F)(F)C(F)(F)C(F)(F)C(F)(F)C(F)(F)C(F)(F)F" when you have a moment?
-- reply False

-- ask Short answer needed: outcome of this test for Clc1ccc(C(c2ccccc2Cl)C(Cl)(Cl)Cl)cc1 (configuration not stated) ?
-- reply True

-- ask Test call, this molecule: "O=C(O)C(F)(F)C(F)(F)C(F)(F)C(F)(F)C(F)(F)C(F)(F)C(F)(F)C(F)(F)C(F)(F)F"
-- reply True

-- ask GET /call?item= C1CC2OC2CC1C1CO1 (configuration not stated) returns the recorded outcome of this test.
-- reply False

-- ask # lookup: test call for "c1ccc(-c2ccccc2)cc1"
-- reply False

-- ask GET /call?item= "CCC(C)(c1ccc(O)cc1)c1ccc(O)cc1" returns the recorded outcome of this test.
-- reply True

-- ask Each molecule tested received a call. Report the one for "C=CC(=O)NCNC(=O)C=C" .
-- reply False

-- ask Which outcome was entered for the molecule "Nn1cnnc1" in this test?
-- reply False

-- ask Check the results log: what was the call for "CCOC(=O)C(O)(c1ccc(Cl)cc1)c1ccc(Cl)cc1" ?
-- reply False

-- ask Per the records of this test, what outcome belongs to "COS(=O)(=O)OC" ?
-- reply False

-- ask Which outcome was assigned to CCC(C)c1cc([N+](=O)[O-])cc([N+](=O)[O-])c1O (configuration not stated) in this test?
-- reply True

-- ask Could you please tell me the result logged for "Cc1cc(-c2ccc(N)c(C)c2)ccc1N" in this assay?
-- reply True

-- ask Call for entry "O=S(=O)(O)C(F)(F)C(F)(F)C(F)(F)C(F)(F)F" :
-- reply False

-- ask Please state the recorded outcome for this molecule: "CCCN(CCC)N=O"
-- reply False

-- ask Which result was noted for this molecule in the test: "CC(C)(O)C(=O)Nc1ccc([N+](=O)[O-])c(C(F)(F)F)c1"
-- reply False

-- ask I would be grateful if you could indicate the recorded call for "COc1ccc(O)c(C(C)(C)C)c1" .
-- reply False

-- ask # lookup: test call for "Cc1cc(O)ccc1Cl"
-- reply False

-- ask Could you check what this test reported for "Oc1ccc(Cl)cc1Cl" ?
-- reply False

-- ask Name the outcome recorded for "CCCCCCCCCc1ccc(O)cc1" in the assay.
-- reply False
